# Test system: Acinetobacter baumannii
# run-description: Antibacterial activity against Acinetobacter baumannii ATCC 17961 after 18 hrs by broth microdilution method
# Type: functional
# experimental-conditions: ATCC 17961, 18 h
property: MIC (µM)
Quick note: give the figure in µM, leave out the unit.

O=C(O)c1cn(C2CC2)c2cc(N3CCNCC3)c(F)cc2c1=O : 0.25

Q. Answer with the recorded MIC for the compound listed here: O=C(CCC(=O)N(CCCCNC(=O)c1cccc(O)c1O)CCCNC(=O)c1cccc(O)c1O)NCCCCCN(O)C(=O)CCC(=O)N[C@H](C(=O)N[C@@H]1C(=O)N2C(C(=O)O)=C(Cl)CC[C@H]12)c1ccccc1
A. 0.125
